Molecular target: T1, human C5 (human, UniProt P01031 19-1676)
T1 construct: native C5 purified from plasma (EMD) in the Biacore and Octet assays, C5 of normal human serum in the CDC and hemolysis assays; two chains (alpha and beta); also called hC5; complement factor 5
Assay: SPR (Biacore), mAb captured, dissociation of human C5 at pH7.4 vs pH6.0, 37°C
Procedure: Effect of pH on the rate of dissociation of recombinant human C5 bound to purified anti-C5 monoclonal antibodies was determined using a real-time surface plasmon resonance biosensor using a Biacore T200 instrument. The Biacore sensor surface was first derivatized by amine coupling with a monoclonal mouse anti-human Fc antibody (GE, # BR-1008-39) to capture anti-C5 monoclonal antibodies expressed with human IgG4 Fc. […] Binding dissociative half-lives (t %) were calculated from kd as: […]
t½ Ratio pH7.4/pH6.0 listing for selected binders.
No unit in the answer, please; the number alone is enough.

- Binder: "H4H12167P (antibody, human IgG4, V domains shown, H4H: human IgG4 Fc with S108P hinge mutation) VH: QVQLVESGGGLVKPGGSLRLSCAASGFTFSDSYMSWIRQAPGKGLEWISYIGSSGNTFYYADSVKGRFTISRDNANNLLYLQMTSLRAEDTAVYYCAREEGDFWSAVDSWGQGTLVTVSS VL: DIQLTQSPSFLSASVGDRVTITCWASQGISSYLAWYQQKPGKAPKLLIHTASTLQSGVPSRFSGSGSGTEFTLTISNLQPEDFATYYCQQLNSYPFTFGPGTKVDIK"
  t½ Ratio pH7.4/pH6.0: 0.2

Data request: Report t½ Ratio pH7.4/pH6.0 for H4H12168P (antibody, human IgG4, V domains shown, H4H: human IgG4 Fc with S108P hinge mutation) VH: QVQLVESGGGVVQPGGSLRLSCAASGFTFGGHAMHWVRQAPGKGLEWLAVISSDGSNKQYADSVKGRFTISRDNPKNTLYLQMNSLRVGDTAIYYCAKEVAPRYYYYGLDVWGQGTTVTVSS VL: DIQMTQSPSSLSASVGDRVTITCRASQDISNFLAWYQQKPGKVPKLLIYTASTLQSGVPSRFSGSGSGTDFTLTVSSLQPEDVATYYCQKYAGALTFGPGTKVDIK please.
Data returned: 1

Data request: Reported t½ Ratio pH7.4/pH6.0 for H4H12166P7 (antibody, human IgG4, V domains shown, histidine-mutated CDR variant of H4H12166P; human IgG4 (S108P)) VH: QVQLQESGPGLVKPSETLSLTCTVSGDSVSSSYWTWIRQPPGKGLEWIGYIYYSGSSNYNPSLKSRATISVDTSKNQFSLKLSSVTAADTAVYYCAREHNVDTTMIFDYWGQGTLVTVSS VL: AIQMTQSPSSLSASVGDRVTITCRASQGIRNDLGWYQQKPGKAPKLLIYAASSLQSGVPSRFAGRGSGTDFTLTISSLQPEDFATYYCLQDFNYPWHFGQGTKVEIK : what is it?
Data returned: 21
